Test system: Eschericia coli ATCC25922
Assay name: Radial diffusion assay (RDA), E. coli
Type: cell-based, Escherichia coli
Design: unit not given here
Assay setup: E. coli; peptide 5 μM; mean of 3
Measurement label: Mean (RDA antimicrobial activity)
// no unit string in output, number only

Worked examples follow.
Prompt: Find the measured Mean (RDA antimicrobial activity) of GKRKKKGKGLGKKRDPCLRKYKWWW [GKR-22-WWW] and report it.
Response: 3.25

Prompt: Find the measured Mean (RDA antimicrobial activity) of PKR-21: growth factor derived peptide, untagged parent of PKR21WWW; sequence not printed (PKRKKKGGKNGKNRRNRKKKN; listed as Homo sapiens) and report it.
Response: 0.94

Prompt: Find the measured Mean (RDA antimicrobial activity) of PKRKKKGGKNGKNRRNRKKKNWWW [PKR-21-WWW] and report it.
Response: 4.92

--- query ---
Prompt: Find the measured Mean (RDA antimicrobial activity) of GKR-22: growth factor derived peptide, untagged parent of GKR22WWW; sequence not printed (GKRKKKGKGLGKKRDPCLRKYK; listed as Homo sapiens) and report it.
Response: 1.93

====

Reported Mean (RDA antimicrobial activity) values for the following substances.
Test system: Eschericia coli ATCC25922
Assay name: Radial diffusion assay (RDA), E. coli
Type: cell-based, Escherichia coli
Parameters: unit not given here
Assay setup: E. coli; peptide 0.5 μM; mean of 3
// no unit string in output, number only

Worked examples follow.
Prompt: Provide Mean (RDA antimicrobial activity), recorded with Eschericia coli ATCC25922, of PKR-21: growth factor derived peptide, untagged parent of PKR21WWW; sequence not printed (PKRKKKGGKNGKNRRNRKKKN; listed as Homo sapiens)
Response: 0.53

Prompt: Provide Mean (RDA antimicrobial activity), recorded with Eschericia coli ATCC25922, of GKR-22: growth factor derived peptide, untagged parent of GKR22WWW; sequence not printed (GKRKKKGKGLGKKRDPCLRKYK; listed as Homo sapiens)
Response: 0.00

Prompt: Provide Mean (RDA antimicrobial activity), recorded with Eschericia coli ATCC25922, of PKRKKKGGKNGKNRRNRKKKNWWW [PKR-21-WWW]
Response: 1.05

--- query ---
Prompt: Provide Mean (RDA antimicrobial activity), recorded with Eschericia coli ATCC25922, of GKRKKKGKGLGKKRDPCLRKYKWWW [GKR-22-WWW]
Response: 0.39

====

Test system: Eschericia coli ATCC25922
Assay name: Radial diffusion assay (RDA), E. coli
Format: cell-based, Escherichia coli
Design: unit not given here
Assay setup: E. coli; peptide 10 μM; mean of 3
Measurement label: Mean (RDA antimicrobial activity)
// no unit string in output, number only

Worked examples follow.
Prompt: Find the measured Mean (RDA antimicrobial activity) of PKR-21: growth factor derived peptide, untagged parent of PKR21WWW; sequence not printed (PKRKKKGGKNGKNRRNRKKKN; listed as Homo sapiens) and report it.
Response: 1.01

Prompt: Find the measured Mean (RDA antimicrobial activity) of GKR-22: growth factor derived peptide, untagged parent of GKR22WWW; sequence not printed (GKRKKKGKGLGKKRDPCLRKYK; listed as Homo sapiens) and report it.
Response: 2.76

Prompt: Find the measured Mean (RDA antimicrobial activity) of GKRKKKGKGLGKKRDPCLRKYKWWW [GKR-22-WWW] and report it.
Response: 5.61

--- query ---
Prompt: Find the measured Mean (RDA antimicrobial activity) of PKRKKKGGKNGKNRRNRKKKNWWW [PKR-21-WWW] and report it.
Response: 5.95
